// data source = PubChem BioAssay AID602267

Molecular target: Golgi-associated PDZ and coiled-coil motif-containing protein (Homo sapiens)
Assay: CAL PDZ domain peptide-binding inhibitors, dose response, biochemical, fluorescence polarization, untagged CAL PDZ, cherry-pick (AID 602267);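 active means signal falls with dose and the fitted half-maximal concentration is at or below twice the top valid tested dose; inconclusive means flat curve with 30 to 70% inhibition, or poor fit; inactive means wrong direction, flat within 30%, or potency beyond limit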
Settings: purified CAL PDZ, TMR-peptide fluorescence polarization, 1 h
Respond using exactly one of the listed classes: 1 for active, 0 for inactive

COc1ccc(S(=O)(=O)Nc2cc(SCC(=O)O)c(O)c3ccccc23)cc1 = 1

## Task Just curious, what result did O=C(O)CSc1cc(NS(=O)(=O)c2ccc(Br)cc2)c2ccccc2c1O get here?
## Result 1

---

Biological target: Golgi-associated PDZ and coiled-coil motif-containing protein (Homo sapiens)
Test: CAL PDZ domain peptide-binding inhibitors, dose response, biochemical, fluorescence polarization, untagged CAL PDZ, cherry-pick (AID 602267)
Settings: purified CAL PDZ, TMR-peptide fluorescence polarization, 1 h
Active and inactive are the calls of the source.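 Rule for the calls: active = signal falls with dose and the fitted half-maximal concentration is at or below twice the top valid tested dose; inconclusive = flat curve with 30 to 70% inhibition, or poor fit; inactive = wrong direction, flat within 30%, or potency beyond limit.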
Respond using exactly one of the listed classes: active, inactive

Worked examples, 2 compounds total:
CCOc1ccc2c(c1)C(NC(C)=O)C(=O)N2CCN1CCOCC1 (centres undefined) = inactive
O=C(O)CSc1cc(NS(=O)(=O)c2cccc([N+](=O)[O-])c2)c2ccccc2c1O = active

## Task Just curious, what result did O=C(O)CSc1cc(NS(=O)(=O)c2ccc(Cl)cc2)c2ccccc2c1O get here?
## Result active

## Task Just curious, what result did COc1ccc2noc3c2c1C(=O)c1ccccc1-3 get here?
## Result active

## Task Just curious, what result did COc1ccc(OC)c(-c2c3cc(O)c(=O)cc-3oc3cc(O)c(O)cc23)c1 get here?
## Result active

## Task Just curious, what result did CCc1ccc(S(=O)(=O)/N=C2/C=C(Sc3ncn[nH]3)C(=O)c3ccccc32)cc1 get here?
## Result active

## Task Just curious, what result did COC(=O)c1ccccc1-c1c2ccc(=N)cc-2oc2cc(N)ccc12 get here?
## Result active

## Task Just curious, what result did CCOc1ccc(S(=O)(=O)Nc2cc(SCC(=O)O)c(O)c3ccccc23)cc1 get here?
## Result active

## Task Just curious, what result did CCNc1ccc2noc3c2c1C(=O)c1ccccc1-3 get here?
## Result active
